assayInfo: Pharmacokinetics in dogs (plasma concentration by HPLC)
Format: in vivo, dog (beagle)
particulars: dog, plasma, po, 2 mg/kg/day, Dog 4, day 5, 7 h; 2 mg/kg/day PO
readoutLabel: concentration at 7 h

// recorded concentration at 7 h for `c1cc(Nc2nccc(-c3cccs3)n2)cc(OCCn2ccnc2)c1` : < 30 ng/mL

====

assayInfo: Pharmacokinetics in dogs (plasma concentration by HPLC)
Assay type: in vivo, dog (beagle)
particulars: dog, plasma, po, 2 mg/kg/day, Dog 2, day 3; 2 mg/kg/day PO
readoutLabel: half-life (h)
Respond numerically; units are h and should not be typed.

Record summary for `c1cc(Nc2nccc(-c3cccs3)n2)cc(OCCn2ccnc2)c1` : reported half-life = 1.18
